assay: qHTS Assay for inhibitors of the human cytomegalovirus (HCMV); conditions: HFF cells, HCMV-luciferase reporter, 72 h; at 57.5 µM; stronger effect = lower value; further: on the % scale 0 is the no-effect control and ±100 the full control effect
Screen size: about 410,000 compounds; about 18,000 (4.4%) were called active. Not shown: some 7% with an inconclusive outcome. Shown is part of a subset that was picked to be rich in actives.
Below, each entry is listed with its recorded activity change, negative = inhibition.
ENDPOINT_LABEL: activity change, negative = inhibition (%)

{"MOLECULE": "Cc1ccc(-c2nnn(CC(=O)N(Cc3ccco3)C(C(=O)NC(C)(C)C)c3ccncc3)n2)o1 (stereo not given)", "UNIT_OF_MEASUREMENT": "%", "ENDPOINT_RESULT": 9.51}
{"MOLECULE": "CCOC(=O)c1cc2c(=O)n3ccccc3nc2n(CC2CCCO2)c1=NC(=O)c1ccc(C(C)(C)C)cc1 (stereo not given)", "UNIT_OF_MEASUREMENT": "%", "ENDPOINT_RESULT": 23.6}
{"MOLECULE": "O=C(Nc1c(-c2ccc(F)cc2)nc2ccccn12)c1cccc(F)c1", "UNIT_OF_MEASUREMENT": "%", "ENDPOINT_RESULT": -69.4}
{"MOLECULE": "O=C(Nc1ccc(-c2csc(Nc3cccc(C(F)(F)F)c3)n2)cc1)c1cccc(C(F)(F)F)c1", "UNIT_OF_MEASUREMENT": "%", "ENDPOINT_RESULT": -66.8}
{"MOLECULE": "Cc1cccc(NC(=O)Cn2cc(S(=O)(=O)Cc3ccccc3Cl)c3ccccc32)c1", "UNIT_OF_MEASUREMENT": "%", "ENDPOINT_RESULT": 0}
{"MOLECULE": "O=C(NN1C(=O)C2CCCCC2C1=O)c1ccco1 (stereo not given)", "UNIT_OF_MEASUREMENT": "%", "ENDPOINT_RESULT": 3.07}
{"MOLECULE": "Cc1ccc(S(=O)(=O)N2CCN(c3ncnc4ccccc34)CC2)cc1", "UNIT_OF_MEASUREMENT": "%", "ENDPOINT_RESULT": -87.3}
{"MOLECULE": "COc1ccc(NC(=O)CCN2CCN(CCO)CC2)cc1", "UNIT_OF_MEASUREMENT": "%", "ENDPOINT_RESULT": 0.59}
{"MOLECULE": "COc1cc(C2OC(c3cc(OC)c(OC)c(OC)c3)C(C)C2C)cc(OC)c1OC (stereo not given)", "UNIT_OF_MEASUREMENT": "%", "ENDPOINT_RESULT": 54.8}
{"MOLECULE": "CN(C(=O)CN1C(=O)S/C(=C\\c2ccccc2F)C1=O)C1CCS(=O)(=O)C1 (stereo not given)", "UNIT_OF_MEASUREMENT": "%", "ENDPOINT_RESULT": -18.9}
{"MOLECULE": "COC(=O)c1c(NC(=O)CCCOc2ccccc2)sc2c1CCC(C)C2 (stereo not given)", "UNIT_OF_MEASUREMENT": "%", "ENDPOINT_RESULT": 5.16}
{"MOLECULE": "COc1ccc(C(=O)NCC(c2ccc(N(C)C)cc2)N2CCc3ccccc32)c(OC)c1 (stereo not given)", "UNIT_OF_MEASUREMENT": "%", "ENDPOINT_RESULT": -18.8}
{"MOLECULE": "CCc1ccc(-n2nnc(-c3nc(-c4ccccc4)no3)c2C)cc1", "UNIT_OF_MEASUREMENT": "%", "ENDPOINT_RESULT": 168}
{"MOLECULE": "CCn1c(CNC(=O)C23CC4CC(CC(C4)C2)C3)nnc1SCC(=O)Nc1ccc(OC)cc1", "UNIT_OF_MEASUREMENT": "%", "ENDPOINT_RESULT": 10}
{"MOLECULE": "CC(=O)Nc1ccc(S(=O)(=O)N2CCn3cccc3C2C)cc1 (stereo not given)", "UNIT_OF_MEASUREMENT": "%", "ENDPOINT_RESULT": 36.8}
{"MOLECULE": "COC(=O)c1c(NC(=O)CN2CCN(S(=O)(=O)c3ccccc3[N+](=O)[O-])CC2)sc2c1CCC(C)C2 (stereo not given)", "UNIT_OF_MEASUREMENT": "%", "ENDPOINT_RESULT": -60.3}
{"MOLECULE": "CN(C)C(CNC(=O)c1cccc(S(=O)(=O)Nc2ccc(Br)cc2)c1)c1ccco1 (stereo not given)", "UNIT_OF_MEASUREMENT": "%", "ENDPOINT_RESULT": -19.6}
{"MOLECULE": "COC(=O)c1ccc2nc(-c3ccc(Cl)cc3)c(Cc3cccc(F)c3)n2c1", "UNIT_OF_MEASUREMENT": "%", "ENDPOINT_RESULT": -17.1}
{"MOLECULE": "Cc1ccc(C)c(S(=O)(=O)N2CCN(c3ncnc4sccc34)CC2)c1", "UNIT_OF_MEASUREMENT": "%", "ENDPOINT_RESULT": -96.6}
{"MOLECULE": "Cc1cccc(CS(=O)(=O)c2ncc(Cl)c(C(=O)Nc3ccc(F)cc3)n2)c1", "UNIT_OF_MEASUREMENT": "%", "ENDPOINT_RESULT": -110}
{"MOLECULE": "COc1ccc(CNC(=O)Cc2coc3ccc(C(C)C)cc23)cc1", "UNIT_OF_MEASUREMENT": "%", "ENDPOINT_RESULT": -6.28}
{"MOLECULE": "Cc1ccc(-n2c3nc(=O)[nH]c(=O)c-3cc3c(Cl)cccc32)cc1", "UNIT_OF_MEASUREMENT": "%", "ENDPOINT_RESULT": -14.6}
{"MOLECULE": "CCCSc1ncc(Cl)c(C(=O)Nc2c(C(=O)Nc3ccccc3)oc3ccccc23)n1", "UNIT_OF_MEASUREMENT": "%", "ENDPOINT_RESULT": -20.1}
{"MOLECULE": "CCOC(=O)c1ccc(NC(=O)c2nc(SCc3ccc(F)cc3)ncc2Cl)cc1", "UNIT_OF_MEASUREMENT": "%", "ENDPOINT_RESULT": 13.6}
{"MOLECULE": "Cc1ccc(C)c(S(=O)(=O)n2nc(C)c(S(=O)(=O)N3CCC(C)CC3)c2C)c1", "UNIT_OF_MEASUREMENT": "%", "ENDPOINT_RESULT": -3.95}
{"MOLECULE": "COc1cccc(CNC(=O)C(=O)NCC(c2cccs2)S(=O)(=O)c2ccccc2)c1 (stereo not given)", "UNIT_OF_MEASUREMENT": "%", "ENDPOINT_RESULT": -19.1}
{"MOLECULE": "CCN(CC)C(=O)CSc1nc2cc3c(cc2c(=O)n1CCCC(=O)NCc1ccc2c(c1)OCO2)OCO3", "UNIT_OF_MEASUREMENT": "%", "ENDPOINT_RESULT": -89.8}
{"MOLECULE": "O=C(CSc1nccn1Cc1ccc(F)cc1)NCc1ccccc1", "UNIT_OF_MEASUREMENT": "%", "ENDPOINT_RESULT": -14.9}
{"MOLECULE": "Cc1ccccc1NC(=O)COC(=O)c1cc(C)n(C2CC2)c1C", "UNIT_OF_MEASUREMENT": "%", "ENDPOINT_RESULT": -2.16}
{"MOLECULE": "CCC(C)N(C(=O)COC(=O)C1C(C(=O)OC)=C(C)NC(C)=C1C(=O)OC)C1CCS(=O)(=O)C1 (stereo not given)", "UNIT_OF_MEASUREMENT": "%", "ENDPOINT_RESULT": -15.8}
{"MOLECULE": "Cc1nc(N2CCCCC2)sc1C=O", "UNIT_OF_MEASUREMENT": "%", "ENDPOINT_RESULT": -68.8}
{"MOLECULE": "CCC(=O)Nc1cccc(C(=O)OCc2cc(=O)n3nc(CC)sc3n2)c1", "UNIT_OF_MEASUREMENT": "%", "ENDPOINT_RESULT": -14.2}
{"MOLECULE": "CCOC(=O)c1c(C)oc2nc(C)nc(N3CCN(c4ccc(OC)cc4)CC3)c12", "UNIT_OF_MEASUREMENT": "%", "ENDPOINT_RESULT": -14.4}
{"MOLECULE": "Cc1ccc(Cl)cc1N1CCN(C(=O)c2cnc3c(-c4ccc(F)cc4)c(C)nn3c2C)CC1", "UNIT_OF_MEASUREMENT": "%", "ENDPOINT_RESULT": 7.36}
{"MOLECULE": "CC12CCC(C(=O)N(NC(=O)c3ccccc3O)C1=O)C2(C)C (stereo not given)", "UNIT_OF_MEASUREMENT": "%", "ENDPOINT_RESULT": -81.2}
{"MOLECULE": "Cc1nnsc1C(=O)N/N=C/c1cccc(C(F)(F)F)c1", "UNIT_OF_MEASUREMENT": "%", "ENDPOINT_RESULT": -22.9}
{"MOLECULE": "Cc1ccc(Cn2c(CNC(=O)Cc3cccc(C)c3)nc3cccnc32)cc1", "UNIT_OF_MEASUREMENT": "%", "ENDPOINT_RESULT": -7.33}
{"MOLECULE": "CCC(C)(O)C(=O)OC1C(=O)OC2CC3C(C)=CC(=O)C(O)C3(C)C3C4(O)OCC23C1C(C)C4O (stereo not given)", "UNIT_OF_MEASUREMENT": "%", "ENDPOINT_RESULT": -96.7}
{"MOLECULE": "O=C1[C@@H]2C(Cc3ccc(O)cc3)NC3(C(=O)Nc4ccc(F)cc43)[C@@H]2C(=O)N1c1ccc(F)cc1 (stereo not given in full)", "UNIT_OF_MEASUREMENT": "%", "ENDPOINT_RESULT": 5.54}
{"MOLECULE": "CCS(=O)(=O)c1ncc(N(Cc2ccc(F)cc2)Cc2ccco2)c(C(=O)Nc2cc(C)ccc2C)n1", "UNIT_OF_MEASUREMENT": "%", "ENDPOINT_RESULT": -29.7}
